system: U251 CNS; experiment: NCI-60 one-dose screen, 48 h (100 = growth as untreated, 0 = no growth, -100 = all killed); settings: 10 µM unless noted
Compounds without any hit were thinned out: in the full panel of roughly 83,000, 20% have a hit.
Observation type: growth (%)
Entry rule: numbers only, all in %.

Compound	Observation type	Recorded number
CCc1cccc(CC)c1N1C(=O)C=CC1=O	growth	100
CC(C)c1ccc(C(=O)OC2CCCC2)cc1	growth	109

Note: attention shifts to another entry.
The measured growth that CC1CC(C)(C)OB(OC(C)CC(C)(C)OB2OC(C)CC(C)(C)O2)O1 (stereo not drawn) showed for U251 CNS is 94.2
